# ASSAY EXPLANATION: Steady-state plasma pharmacokinetics of rifabutin and 25-O-desacetylrifabutin, alone and with lopinavir/ritonavir
# RUN PARAMETERS: human, plasma, oral, 150 mg, Cmax, rifabutin 150 mg TPW with lopinavir/ritonavir; median (range)
ENDPOINT NAME: Cmax (ng/mL)

{"STRUCTURE": "CO[C@H]1/C=C/O[C@@]2(C)Oc3c(C)c(O)c4c(c3C2=O)C2=NC3(CCN(CC(C)C)CC3)NC2=C(NC(=O)/C(C)=C\\C=C\\[C@H](C)[C@H](O)[C@@H](C)[C@@H](O)[C@@H](C)[C@H](OC(C)=O)[C@@H]1C)C4=O", "RECORDED VALUE": 544}

###

# ASSAY EXPLANATION: Steady-state plasma pharmacokinetics of rifabutin and 25-O-desacetylrifabutin, alone and with lopinavir/ritonavir
# RUN PARAMETERS: human, plasma, oral, Cmin n = 25, rifabutin 300 mg OD alone; end of dosing interval 24 h; median (range)
ENDPOINT NAME: concentration at 24 h (ng/mL)

{"STRUCTURE": "CO[C@H]1/C=C/O[C@@]2(C)Oc3c(C)c(O)c4c(c3C2=O)C2=NC3(CCN(CC(C)C)CC3)NC2=C(NC(=O)/C(C)=C\\C=C\\[C@H](C)[C@H](O)[C@@H](C)[C@@H](O)[C@@H](C)[C@H](OC(C)=O)[C@@H]1C)C4=O", "DISPLAY UNIT": "ng/mL", "RECORDED VALUE": 79}

###

# ASSAY EXPLANATION: Steady-state plasma pharmacokinetics of rifabutin and 25-O-desacetylrifabutin, alone and with lopinavir/ritonavir
# RUN PARAMETERS: human, plasma, oral, Cmin n = 15, rifabutin 300 mg OD alone; end of dosing interval 24 h; median (range)

{"MOLECULE": "CO[C@H]1/C=C/O[C@@]2(C)Oc3c(C)c(O)c4c(c3C2=O)C2=NC3(CCN(CC(C)C)CC3)NC2=C(NC(=O)/C(C)=C\\C=C\\[C@H](C)[C@H](O)[C@@H](C)[C@@H](O)[C@@H](C)[C@H](OC(C)=O)[C@@H]1C)C4=O [Rifabutin]", "concentration at 24 h (ng/mL)": 61}
